Here's a roundup of pIC50 values tested on Methionine aminopeptidase 2 (Homo sapiens), taken from various published works.
Numbers only, as −log10 of the molar value.

1. CO[C@H]1C([C@]2(C)OC2CC=C(C)C)[C@]2(CC[C@H]1OC(=O)CCCCl)CO2 (stereo partly specified) = 8.46

Kindly give each listed record's pIC50.
1. NC(=O)c1[nH]c2cnccc2c1-c1ccccc1
2. O=C1CCC2(CO2)c2c1nnn2Cc1ccc(F)cc1 (stereo unspecified)
3. CN(C)Cc1ccc(-c2c(C(N)=O)[nH]c3ccc(Cl)cc23)cc1

Output line:
[5.20, 6.60, 6.00]

Kindly give each listed record's pIC50.
1. O=C1CCC2(CO2)c2c1nnn2Cc1ccc2ccccc2c1 (stereo unspecified)
2. CC(C)Oc1ccccc1-c1c(C(N)=O)[nH]c2ccc(Cl)cc12

Output line:
6.23
7.60

---

Here's a roundup of IC50 values tested on Methionine aminopeptidase 2 (Homo sapiens, UniProt P50579), taken from various published works.
Sequence (P50579 whole entry): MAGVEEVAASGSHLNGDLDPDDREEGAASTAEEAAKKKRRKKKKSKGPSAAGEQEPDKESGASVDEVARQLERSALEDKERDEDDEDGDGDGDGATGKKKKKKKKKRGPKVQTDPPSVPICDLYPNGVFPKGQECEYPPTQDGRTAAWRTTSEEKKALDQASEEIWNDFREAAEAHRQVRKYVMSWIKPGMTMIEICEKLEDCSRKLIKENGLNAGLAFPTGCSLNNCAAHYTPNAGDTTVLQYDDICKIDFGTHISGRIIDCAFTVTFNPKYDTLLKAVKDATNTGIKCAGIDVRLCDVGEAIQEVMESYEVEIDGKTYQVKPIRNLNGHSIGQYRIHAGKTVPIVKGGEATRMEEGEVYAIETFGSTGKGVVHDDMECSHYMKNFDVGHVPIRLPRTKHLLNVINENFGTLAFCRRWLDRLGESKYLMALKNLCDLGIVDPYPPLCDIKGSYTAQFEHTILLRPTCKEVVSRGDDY
# 1 (yes) = IC50 below 800 nM (exclusive); 0 (no) = IC50 at/above 800 nM

1. COc1ccc(Cn2nnc3c2[C@]2(CC[C@H]3OC(=O)NCC(C)C)CO2)cc1 (relative stereo) = 1 (yes)
2. COc1ccc(-c2c(C(N)=O)[nH]c3ccc(Cl)cc23)cc1 = 1 (yes)
3. CN1CCN(c2cncc(-c3cnc4c5[nH]ncc5c(=O)n(CC(F)(F)F)c4c3)c2)CC1 = 0 (no)
4. N#Cc1cccc(Cn2nnc3c2C2(CCC3=O)CO2)c1 (centres undefined) = 0 (no)
5. CC(C)Oc1cc(N2CCNCC2)ccc1-c1c(C(N)=O)[nH]c2cc(F)c(Cl)cc12 = 1 (yes)

Input line: hey, is IC50 for NC(=O)c1[nH]c2c(F)cc(Cl)cc2c1-c1ccccc1 lower than 800 nM or not?
Output line: 1 (yes)

Input line: hey, is IC50 for CO[C@H]1C([C@]2(C)OC2CC=C(C)C)[C@@](O)(SC)CC[C@H]1O (some centres undefined) lower than 800 nM or not?
Output line: 0 (no)

Input line: hey, is IC50 for COc1ccc(Cn2nnc3c2[C@]2(CC[C@H]3OC(=O)Nc3ccccc3)CO2)cc1 (relative stereo) lower than 800 nM or not?
Output line: 0 (no)

---

Here's a roundup of IC50 values tested on UniProtKB P50579, taken from various published works.
One number for each entry, in nM.

Some entries whose results are on file:
1) O=c1c2cn[nH]c2c2ncc(-c3ccccc3C(F)(F)F)cc2n1CC(F)(F)F = 20000
2) COc1ccc(Cn2nnc3c2C2(CCC3=O)CO2)cc1 (stereo unspecified) = 460
3) NC(=O)c1[nH]c2ccc(F)cc2c1-c1ccccc1 = 631
4) Cc1ccccc1-c1c(C(N)=O)[nH]c2ccc(Cl)cc12 = 316
5) CN1CCN(c2ccc(-c3cnc4c5[nH]ncc5c(=O)n(CC(F)(F)F)c4c3)cn2)CC1 = 5000

Kindly give each listed record's IC50.
1. COc1ccccc1-c1c(C(N)=O)[nH]c2cc(F)c(Cl)cc12
2. COc1ccccc1-c1c(C(N)=O)[nH]c2ccc(Cl)cc12

Output line:
[6.3, 100]
